Catalogue of binders with associated IC50, IL-31-induced STAT3 phosphorylation in NHK, Exp 7
Target: T1, recombinant human IL-31 (as used in the NHK STAT3 phosphorylation assay of Example 5) (human, UniProt Q6EBC2 24-164, limits assumed)
T1 sequence: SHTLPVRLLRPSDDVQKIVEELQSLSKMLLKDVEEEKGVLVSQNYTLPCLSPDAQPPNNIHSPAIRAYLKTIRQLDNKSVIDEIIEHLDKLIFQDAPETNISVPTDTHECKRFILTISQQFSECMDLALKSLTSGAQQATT
Test: cell-based or functional assay
Number in nM, nothing else.

humanized 292.12.3.1 construct clone 7 (12VH1-gly + fback) (antibody, human IgG4, V domains shown, also called 07) VH: QVQLVQSGAEVKKPGASVKVSCKASGYTLTRYWMQWVRQAPGQGLEWMGAIYPGDGDTRYSQKFQGRVTLTADKSISTAYMELSSLRSEDTAVYYCAFPDGYYAAPYGMDYWGQGTLVTVSS VL: DIQMTQSPSSLSASVGDRVTITCRASGNIHNYLAWYQQKPGKVPKLLIYNAKTLADGVPSRFSGSRSETQYSLTISSLQPEDVATYYCQHFWSTPWTFGQGTKVEIKR    7.74

# input for lookup
Query block: In one line, give reported IC50, IL-31-induced STAT3 phosphorylation in NHK, Exp 7 of the entry humanized 292.12.3.1 construct clone 17 (12VH1-gly + HC(fback) + LC(D70Q, F71Y, T72S)) (antibody, human IgG4, V domains shown) VH: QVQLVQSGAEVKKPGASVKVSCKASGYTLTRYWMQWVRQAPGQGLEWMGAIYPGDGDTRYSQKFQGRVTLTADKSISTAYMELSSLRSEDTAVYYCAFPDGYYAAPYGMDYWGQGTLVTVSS VL: DIQMTQSPSSLSASVGDRVTITCRASGNIHNYLAWYQQKPGKVPKLLIYNAKTLADGVPSRFSGSGSGTQYSLTISSLQPEDVATYYCQHFWSTPWTFGQGTKVEIKR .
Result block: 5.29
